experiment: NCI Yeast Anticancer Drug Screen. Data for the mec2-1 strain (AID 157); settings: S. cerevisiae mec2-1 strain, at 50.0 µM, hits give high values
This is part of a sample that, as a whole, favours compounds with a hit. Of some 79,000 tested, about 15% had one in any assay.
Below is a list of entries, each paired with its recorded growth inhibition value.
Just the number in %, nothing appended.

Answered cases to consult:
O=c1[nH]c(NCc2ccc(Cl)cc2)nc2nc[nH]c12	-3.85
Cc1ccc2c3nc4ccccc4c-3csc2c1	99.4
COC(=O)CCCCCCCCC(C)C(C)=O (configuration not stated)	-29.8
COc1ccc(OC)c2c1ccc1c(C)c3ccccc3c(C)c12	-1.1
CN(C)N=Nc1ccccc1	-14.2

Prompt: Identify the reported growth inhibition for the following entry. CC1C2(C)OC(=N)C(C#N)(C(c3ccco3)O2)C1(C#N)C#N (configuration not stated)
Response: 3.1

Prompt: Identify the reported growth inhibition for the following entry. CCc1n[nH]c(=O)n1/N=C/c1ccccc1O
Response: 3.8

###

assay: NCI Yeast Anticancer Drug Screen. Data for the mec2-1 strain (AID 157); conditions: S. cerevisiae mec2-1 strain, at 50.0 µM, hits give high values
About 79,000 compounds went through this panel and 15% of them were active in at least one assay; those are over-represented in the sample as a whole.
READOUT_NAME: growth inhibition (%)
Just the number in %, nothing appended.

O=C(Nc1ccc([N+](=O)[O-])cc1Cl)OCCc1ccccn1	26.9
CCCCCCCCCCCCCCCSc1ccc2ccccc2c1	1.35
Cc1cc(N=Nc2ccc(N=Nc3ccc(S(=O)(=O)O)cc3)cc2)cc(C(=O)O)c1O	-9.4
CN(C)C(=O)Nc1ccc(F)cc1	-25.6
O=C(NNC(=O)c1ccc2ccccc2c1)c1cccc(Br)c1	-20.6

Lab note: next molecule to report on.
Prompt: Identify the reported growth inhibition for the following entry. NC(=O)C(=Cn1c(=S)[nH]c2ccccc21)C(N)=O
Response: -23.2

###

assay: NCI Yeast Anticancer Drug Screen. Data for the bub3 strain (AID 167); details: S. cerevisiae bub3 mutant strain, at 50.0 µM, hits give high values
Compounds without any hit were thinned out: in the full panel of roughly 79,000, 15% have a hit.
READOUT_NAME: growth inhibition (%)
Just the number in %, nothing appended.

Answered cases to consult:
O=c1oc(Cl)cc2oc(=O)n(-c3ccccc3)c(=O)c12	-9.25
COC(=O)c1c2c(cc3c1CC1(Cc4cc5c(c(C(C)=O)c4C1)CCC5)C3)CCC2 (stereo not given)	-20.7
N#Cc1c(-c2ccccc2)ssc1=S	11.8
S=c1nc[nH]c2c1ncn2Cc1ccccc1	4.9
Cc1ccc(CCC=O)cc1	-8.5

Prompt: Identify the reported growth inhibition for the following entry. COc1ccc(CC(CN)P(=O)(O)O)cc1 (stereo not given)
Response: 15.1

Prompt: Identify the reported growth inhibition for the following entry. O=c1[nH]cnc2c1sc(=S)n2-c1ccccc1
Response: -12.3

###

experiment: NCI Yeast Anticancer Drug Screen. Data for the mlh1 rad18 strain (AID 175); details: S. cerevisiae mlh1 rad18 strain growth inhibition; at 50.0 µM; hits give high values
About 79,000 compounds went through this panel and 15% of them were active in at least one assay; those are over-represented in the sample as a whole. Activity calls are given as the source filed them. Cut-off read from the data, not from the text of the source: active = growth inhibition above about 70%; inactive = the rest.
READOUT_NAME: growth inhibition

Answered cases to consult:
Cc1ccc(-c2cc(=O)c3cc(C)c(C)c(C(=O)O)c3o2)cc1C	20.7% (inactive)
CC(=O)Nc1c(Nc2ccc3c(=O)[nH]ccc3c2C)cc[nH]c1=O	27.5% (inactive)
COc1ccc(C2c3cc4c(cc3OC3(O)CCCC(=O)C23)OCO4)cc1 (centres undefined)	-7.4% (inactive)

Prompt: Identify the reported growth inhibition for the following entry. CC1(C(=O)N2c3ccccc3C=CC2C#N)CC2C=CC1C2 (centres undefined)
Response: -15.9% (inactive)

###

assay: NCI Yeast Anticancer Drug Screen. Data for the cln2 rad14 strain (AID 165);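 further: 0% = growth equal to vehicle treated cultures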; conditions: S. cerevisiae cln2 rad14 strain, at 50.0 µM, hits give high values
Compounds without any hit were thinned out: in the full panel of roughly 79,000, 15% have a hit.
Below is a list of entries, each paired with its recorded growth inhibition value.
Just the number in %, nothing appended.

Answered cases to consult:
COC(=O)c1cc(-c2ccc3ccccc3c2)[nH]c(=O)c1C#N	46.9
Cc1ccnc(NC(=O)Nc2ccc(C)cc2[N+](=O)[O-])c1	8.35
COC(=O)c1ccccc1C1CN=NC12Cc1c(C)ccc(C)c1C2=O (configuration not stated)	14.2

Prompt: Identify the reported growth inhibition for the following entry. Nc1ccc(S(=O)(=O)CC(=O)N2CCOCC2)cc1
Response: 17.9

Prompt: Identify the reported growth inhibition for the following entry. Cc1ccc2c(c1)C(c1ccccc1)(c1ccccc1)OC2
Response: -10.8

###

experiment: NCI Yeast Anticancer Drug Screen. Data for the rad50 strain (AID 155);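 further: 0% = growth of vehicle-only cultures of the same strain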; conditions: S. cerevisiae rad50 strain growth inhibition; at 50.0 µM; hits give high values
This is part of a sample that, as a whole, favours compounds with a hit. Of some 79,000 tested, about 15% had one in any assay.
Below is a list of entries, each paired with its recorded growth inhibition value.
Just the number in %, nothing appended.

Answered cases to consult:
O=C(NCCNCCO)N/N=C/c1ccc([N+](=O)[O-])cc1	-8.75
C=CCNC(=S)N1CC(C)C(=O)Nc2ccccc21 (stereo not given)	-26.1
Cc1ccc(Sc2ccc3ccccc3c2)nc1	6.75
O=C([O-])[C+](C=Cc1cccc2ccccc12)C(=O)O	9.05
O=C(c1ccccc1)N1CCOCC1	9.75

Lab note: next molecule to report on.
Prompt: Identify the reported growth inhibition for the following entry. Cc1ccc(NC(=NCCCN(C)C)C(c2ccccc2)c2ccccc2)cc1
Response: -2.7

###

experiment: NCI Yeast Anticancer Drug Screen. Data for the cln2 rad14 strain (AID 165);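 further: 0% = growth equal to vehicle treated cultures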; conditions: S. cerevisiae cln2 rad14 strain, at 50.0 µM, hits give high values
Compounds without any hit were thinned out: in the full panel of roughly 79,000, 15% have a hit.
Below is a list of entries, each paired with its recorded growth inhibition value.
Just the number in %, nothing appended.

Answered cases to consult:
CC1=CC(=O)C(=Ic2ccccc2)C(=O)O1	9.65
O=C(C[n+]1ccccc1)c1ccccc1	-18.5
C=C1C(C2(C)C=CC(=O)OC3(C)COC(=O)CC32)C(OC=O)C(OC(=O)C(O)C(C)CC)C2(C)C(c3ccoc3)CC(OC(C)=O)C12O (stereo not given)	-0.45
CC1(C(=O)O)CCCC1C(=O)O (stereo not given)	-8.05

Lab note: next molecule to report on.
Prompt: Identify the reported growth inhibition for the following entry. CC(N=C(N)N)C(=O)O (stereo not given)
Response: -12.5

###

assay: NCI Yeast Anticancer Drug Screen. Data for the mlh1 rad18 strain (AID 175); details: S. cerevisiae mlh1 rad18 strain growth inhibition; at 50.0 µM; hits give high values
About 79,000 compounds went through this panel and 15% of them were active in at least one assay; those are over-represented in the sample as a whole.
Below is a list of entries, each paired with its recorded growth inhibition value.
Just the number in %, nothing appended.

Answered cases to consult:
CNSC1CCC2(C)C(=CCC3C2CCC2(C)C(C(C)CCCC(C)C)CCC32)C1 (configuration not stated)	10
CC(=O)N1C(=O)NC(=O)C1(C)c1cccs1 (configuration not stated)	1.2
C=CCNC(=O)N(CCC)CCCC(NC(C)=O)C(=O)NCc1ccccc1 (configuration not stated)	-9.7

Lab note: next compound to report on.
Prompt: Identify the reported growth inhibition for the following entry. O=C(O)CCC(=O)Nc1cccc(C(F)(F)F)c1
Response: 4.3

###

Below is a list of entries, each paired with its recorded growth inhibition value.
assay: NCI Yeast Anticancer Drug Screen. Data for the cln2 rad14 strain (AID 165);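 further: 0% = growth equal to vehicle treated cultures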; settings: S. cerevisiae cln2 rad14 strain, at 50.0 µM, hits give high values
Compounds without any hit were thinned out: in the full panel of roughly 79,000, 15% have a hit.
Just the number in %, nothing appended.

Answered cases to consult:
CC1CN(c2ccccc2)NC1=O (centres undefined)	27.1
CCOC(=O)c1c(N)[nH]c(SSc2[nH]c(N)c(C(=O)OCC)c2C(=O)OCC)c1C(=O)OCC	13.7
Cc1cc(C)c2c(ccc3ccccc32)n1	-5.75

Lab note: next molecule to report on.
Prompt: Identify the reported growth inhibition for the following entry. COc1ccc(/C=N/NC(=O)CCCCCCCCC(=O)N/N=C/c2ccc(OC)c(OC)c2)cc1OC
Response: -50.2

###

experiment: NCI Yeast Anticancer Drug Screen. Data for the mec2-1 strain (AID 157); conditions: S. cerevisiae mec2-1 strain, at 50.0 µM, hits give high values
This is part of a sample that, as a whole, favours compounds with a hit. Of some 79,000 tested, about 15% had one in any assay.
Below is a list of entries, each paired with its recorded growth inhibition value.
Just the number in %, nothing appended.

CC(C)NC(=O)OCCN=c1c2ccccc2ccc2ccccc12	49.8

Lab note: next compound to report on.
Prompt: Identify the reported growth inhibition for the following entry. Brc1cc(Br)c(Br)cc1Br
Response: 5.7

Source: PubChem BioAssay (NCI)
